Assay: qHTS for Activators of p53 Stress Response Pathway screened against the NCATS CANVASS Library (AID 1347388)
Details: p53RE-bla HCT-116, beta-lactamase reporter, 16 h; series mostly up to 46.1 µM
Records with an inconclusive call do not appear. Activity calls are given as the source filed them. Calls come from the whole dose curve; as a rule, active = well fitted activation curve with a large enough effect; inconclusive = small, poorly fitted or top-dose-only effect; inactive = flat fitted curve, though single readings scatter.
Outcome (select one): active, inactive

Can you look up the reported call for `COC(=O)C1=C[C@]23C[C@@H](C)CC[C@@H]2[C@@]2(C)CC[C@@H](C(C)C)[C@@](O)(O3)[C@@H]12` for me? inactive

Can you look up the reported call for `COc1ccc2[nH]c3c(c2c1)CCN1C[C@H]2C[C@@H](OC(=O)c4cc(OC)c(OC)c(OC)c4)[C@H](OC)[C@@H](OC)[C@H]2C[C@H]31` for me? inactive

Can you look up the reported call for `C=C(Cl)[C@](Cl)(CBr)CC[C@@H](Br)C(C)(C)Cl` for me? inactive

Can you look up the reported call for `C/C1=C/[C@@H](C)[C@H](O)C/C=C/CC/C=C/C(=O)O[C@@H]1[C@H](C)C(=O)CCCC1CC(=O)NC(=O)C1` for me? inactive

Can you look up the reported call for CC(C)=CCCC(C)(O)[C@H]1CC=C(C)C(O)C1 (stereo partly specified) for me? inactive

Can you look up the reported call for COc1ccc([C@@H]2c3cc4c(cc3C[C@H](C)C2C)OCO4)cc1OC (stereo partly specified) for me? active

Can you look up the reported call for `COC(=O)[C@]1([C@H]2CCC(=O)O2)CC(=O)c2c(O)cc(C)cc2O1` for me? inactive

Can you look up the reported call for CO[C@@H]1[C@H](O)[C@@H](C)O[C@@H](OC[C@@H]2C(C)OC(=O)/C=C/[C@H](C)C(O[C@@H]3O[C@H](C)CC4(OC(=O)O[C@@H]4C)C3O)[C@@H](C)CC(C)C(=O)/C=C/[C@H]3OC23)[C@@H]1OC (stereo partly specified) for me? inactive

Can you look up the reported call for CC1(C)CC[C@]2(CO)CC[C@]3(C)C(=CCC4[C@@]5(C)CC[C@H](O)C(C)(C)C5CC[C@]43C)C2C1 (stereo partly specified) for me? inactive

Can you look up the reported call for `CN1CC[C@@]23c4ccccc4N[C@@H]1[C@@]21CCN(C)[C@@H]3Nc2ccccc21` for me? inactive

Can you look up the reported call for `C[C@H]1C=C[C@H]2CCCC[C@@H]2[C@H]1C(=O)[C@H]1CC2=C(C(=O)O)CCN2C1=O` for me? inactive

Can you look up the reported call for C/C=C/C(=O)C1(O)CC2CC(C(=O)O)CC(C)C2C1C1=C2C(=O)NC(=O)C2=C(CCCCC)C(C)O1 (stereo unspecified) for me? active

Can you look up the reported call for `CC(=O)c1c(C)cc2c(c1O)C(=O)c1c(O)cc(O)cc1C2=O` for me? inactive
